As shown below, each of these compounds has a reported EC50 value.
# SYSTEM UNDER TEST: GLP-1R (Homo sapiens (Human), UniProt P43220)
# Sequence (P43220 24-463): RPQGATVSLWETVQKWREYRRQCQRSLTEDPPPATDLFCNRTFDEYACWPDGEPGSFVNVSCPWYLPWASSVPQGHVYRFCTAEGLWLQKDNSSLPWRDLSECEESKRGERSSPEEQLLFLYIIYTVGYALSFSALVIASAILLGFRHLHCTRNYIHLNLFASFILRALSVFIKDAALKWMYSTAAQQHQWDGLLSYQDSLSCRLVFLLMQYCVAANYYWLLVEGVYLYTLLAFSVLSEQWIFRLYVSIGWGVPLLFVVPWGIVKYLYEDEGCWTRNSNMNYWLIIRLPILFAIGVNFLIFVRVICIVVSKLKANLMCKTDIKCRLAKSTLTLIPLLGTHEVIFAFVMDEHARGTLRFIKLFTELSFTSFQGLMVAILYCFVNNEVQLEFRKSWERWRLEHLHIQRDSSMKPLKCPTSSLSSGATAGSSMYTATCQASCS
# RUN DESCRIPTION: GLP-1R activation: cAMP increase in CHO cells stably expressing GLP-1R
# Format: cell-based
# ASSAY CONDITIONS: cAMP increase, 10 point dose response, 30 minutes incubation at 37° C., read-out: EC50
Response body: numeric value in nM, unit text excluded.

[[record]]
compound = "COCCn1c(Cc2ccc(-c3cccc4c3OC(C)(c3ccc(Cl)cc3F)O4)s2)nc2ccc(C(=O)O)cc21 (stereo not drawn)"
result_value = 78

[[record]]
compound = "COCCn1c(Cc2ccc(-c3cccc4c3OC(C)(c3nc5ccccc5n3C)O4)cc2F)nc2ccc(C(=O)O)cc21 (stereo not drawn)"
result_value = 2270

[[record]]
compound = "CC1(c2ccc(C#N)cc2F)Oc2cccc(-c3cc(F)c(Cc4nc5ccc(C(=O)O)cc5n4C[C@@H]4CCO4)c(F)c3F)c2O1 (stereo partly drawn) [Example 90]"
result_value = 0.23


Query :: Note down EC50 recorded for CC1(c2ccc(Cl)cc2F)Oc2cccc(-c3ccc(Cc4nc5ccc(C(=O)O)cc5n4C[C@@H]4CCO4)c(F)c3)c2O1 (stereo partly drawn)
Result :: 0.49

Query :: Return EC50 (reported value) for this compound: CC1(c2ccc(Cl)cn2)Oc2ccc(F)c(-c3ccc(Cc4nc5ccc(C(=O)O)cc5n4C[C@@H]4CCO4)c(F)c3)c2O1 (stereo partly drawn)
Result :: 4.3

Query :: Read the entry CC1(c2ccc(C#N)cc2F)Oc2cccc(-c3cc(F)c(Cc4nc5ccc(C(=O)O)cc5n4C[C@@H]4CCO4)c(F)c3F)c2O1 (single isomer, unassigned) [Example 94] and write its reported EC50.
Result :: 0.32

###

# RUN DESCRIPTION: Microsomal stability (liver microsomal assay, mixed cofactors); predicted hepatic clearance
# Format: in vitro ADME
# ASSAY CONDITIONS: liver microsomes 1.0 mg protein/mL (+UDPGA +NADPH), 1 μM analyte, 37° C.; scaled with human liver weight and hepatic blood flow 1.3 L/hr/kg
# Protocol: Metabolic stability of compounds was assessed using human or rat liver microsomal assays (Corning). […] Assay plates were analyzed using solid-state extraction coupled with quadrupole time-of-flight mass spectrometer, using Agilent QToF 6530 RapidFire 360 system, with C4 type A solid state cartridges. […] Pharmacological parameters for an analyte compound metabolism were calculated using the following equations: […]
// classify: if (Predicted Hepatic Clearance (Pred. Cl.) < 5 mL/min/kg) Fulfilled else Not fulfilled

Example entries begin here.
[[record]]
compound = "CC1(c2ccc(Cl)cn2)Oc2cccc(-c3cc(F)c(Cc4nc5ccc(C(=O)O)cc5n4C[C@@H]4CCO4)cc3F)c2O1 (single isomer, unassigned) [Example 46]"
cat = "Fulfilled"

[[record]]
compound = "CCC1(c2ccc(Cl)cc2F)Oc2cccc(-c3cc(F)c(Cc4nc5ccc(C(=O)O)cc5n4CCOC)c(F)c3)c2O1 (stereo not drawn)"
cat = "Not fulfilled"

[[record]]
compound = "CC1(c2ccc(Cl)cc2F)Oc2cccc(-c3ccc(Cc4nc5ccc(C(=O)O)cc5n4C[C@@H]4CCO4)cn3)c2O1 (stereo partly drawn)"
cat = "Fulfilled"

[[record]]
compound = "COCCn1c(Cc2ccc(-c3cccc4c3OC(C)(c3ccc(Cl)cc3F)O4)n(C)c2=O)nc2ccc(C(=O)O)cc21 (stereo not drawn)"
cat = "Not fulfilled"

[[record]]
compound = "CC1(c2ccc(Cl)cc2F)Oc2cccc(-c3ccc(Cc4nc5ccc(C(=O)O)cc5n4Cc4ccon4)c(F)c3)c2O1 (stereo not drawn)"
cat = "Fulfilled"


Query :: I'd appreciate it if you could check whether CC(=O)N1CC[C@@H]1Cn1c(Cc2ccc(-c3cccc4c3OC(C)(c3ccc(Cl)cc3F)O4)cc2F)nc2ccc(C(=O)O)cc21 (stereo partly drawn) has Predicted Hepatic Clearance (Pred. Cl.) smaller than 5 mL/min/kg.
Result :: Fulfilled

Query :: Given CC1(c2ccc(Cl)cc2F)Oc2cccc(-c3ccc(Cc4nc5ccc(C(=O)O)cc5n4C[C@@H]4CCO4)cc3F)c2O1 (stereo partly drawn) , is recorded Predicted Hepatic Clearance (Pred. Cl.) strictly lower than 5 mL/min/kg?
Result :: Fulfilled

Query :: Find out if reported Predicted Hepatic Clearance (Pred. Cl.) for COCCn1c(Cc2ccc(-c3cccc4c3OC(c3ccccc3)O4)cc2F)nc2ccc(C(=O)O)cc21 (single isomer, unassigned) [Example 35] is less than 5 mL/min/kg
Result :: Fulfilled

Query :: Does this compound meet the criterion Predicted Hepatic Clearance (Pred. Cl.) < 5 mL/min/kg? COCCn1c(Cc2c(F)cc(-c3cccc4c3OC(C)(c3ccc(C#N)cc3F)O4)c(F)c2F)nc2ccc(C(=O)O)cc21 (single isomer, unassigned) [Example 97]
Result :: Not fulfilled

Query :: I'd appreciate it if you could check whether COCCn1c(Cc2cc(F)c(-c3cccc4c3OC(c3ccc(C#N)cc3F)O4)cc2F)nc2ccc(C(=O)O)cc21 (stereo not drawn) [Example 31] has Predicted Hepatic Clearance (Pred. Cl.) smaller than 5 mL/min/kg.
Result :: Fulfilled

Query :: Is it true that Predicted Hepatic Clearance (Pred. Cl.) reported for COCCn1c(Cc2c(F)cc(-c3cccc4c3OC(C)(c3ccc(Cl)cn3)O4)cc2F)nc2ccc(C(=O)O)cc21 (stereo not drawn) [Example 65] is less than 5 mL/min/kg?
Result :: Fulfilled

Query :: Hello, is Predicted Hepatic Clearance (Pred. Cl.) of the following compound strictly smaller than 5 mL/min/kg? CC1(c2ccc(Cl)cn2)Oc2cccc(-c3ccn(Cc4nc5ccc(C(=O)O)cc5n4C[C@@H]4CCO4)c(=O)c3)c2O1 (stereo partly drawn)
Result :: Fulfilled

###

# RUN DESCRIPTION: Microsomal stability (liver microsomal assay, mixed cofactors); predicted hepatic clearance
# Type: in vitro ADME
# ASSAY CONDITIONS: liver microsomes 1.0 mg protein/mL (+UDPGA +NADPH), 1 μM analyte, 37° C.; scaled with human liver weight and hepatic blood flow 1.3 L/hr/kg
Predicted Hepatic Clearance (Pred. Cl.) of 8 mL/min/kg or higher: 1. Under 8 mL/min/kg: -1.

Use these answered entries as a reference point.
[[record]]
compound = "COCCn1c(Cc2cc(F)c(-c3cccc4c3OC(C)(c3ccc(Cl)cc3F)O4)cc2F)nc2ccc(-c3nn[nH]n3)cc21 (stereo not drawn)"
cat = -1

[[record]]
compound = "COCCn1c(Cc2cc(F)c(-c3c(F)ccc4c3OC(C)(c3ccc(Cl)cn3)O4)cc2F)nc2ccc(C(=O)O)cc21 (stereo not drawn)"
cat = 1

[[record]]
compound = "COCCn1c(Cc2cc(F)c(-c3cccc4c3OC(C)(c3ccc(C#N)cc3F)O4)cc2F)nc2c(F)cc(C(=O)O)cc21 (stereo not drawn)"
cat = 1


Query :: In plain terms: is recorded Predicted Hepatic Clearance (Pred. Cl.) at least 8 mL/min/kg for COCCn1c(Cc2c(F)cc(-c3cccc4c3OC(c3ccc(C#N)cc3F)O4)cc2F)nc2ccc(C(=O)O)cc21 (single isomer, unassigned) [Example 38] ?
Result :: -1

###

# SYSTEM UNDER TEST: GLP-1R (Homo sapiens (Human))
# RUN DESCRIPTION: GLP-1R activation: cAMP increase in CHO cells stably expressing GLP-1R
# Type: cell-based
# ASSAY CONDITIONS: cAMP increase, 10 point dose response, 30 minutes incubation at 37° C., read-out: EC50
EC50 listing for selected compounds.
Provide the reading as a plain figure in nM.

[[record]]
compound = "CC1(c2ccc(Cl)cc2F)Oc2cccc(-c3cc(F)c(Cc4nc5ccc(C(=O)O)nc5n4CC4(CF)CC4)c(F)c3)c2O1 (stereo not drawn) [Example 21]"
result_value = 0.86


Query :: Identify the reported EC50 for the following entry. CC1(c2ccc(Cl)cc2F)Oc2cccc(-c3cc(F)c(Cc4nc5ccc(C(=O)O)cc5n4C[C@@H]4CCO4)cc3F)c2O1 (single isomer, unassigned) [Example 44]
Result :: 0.033

Query :: Output EC50 of CC1(c2ccc(Cl)cc2F)Oc2cccc(-c3cc(F)c(Cc4nc5c(F)cc(C(=O)O)cc5n4CC4(CC#N)CC4)c(F)c3)c2O1 (single isomer, unassigned) [Example 105]
Result :: 2.6

###

# SYSTEM UNDER TEST: GLP-1R (Homo sapiens (Human), UniProt P43220)
# RUN DESCRIPTION: GLP-1R activation: cAMP increase in CHO cells stably expressing GLP-1R
# Assay type: cell-based
# ASSAY CONDITIONS: cAMP increase, 10 point dose response, 30 minutes incubation at 37° C., read-out: EC50
pEC50: −log10 of the molar value.
Lab note: anything with pEC50 at or over 9 counts as rule met; the rest go in rule not met.

Solved cases (10 shown):
[[record]]
compound = "CC1(c2ccc(Cl)cc2F)Oc2cccc(-c3cc(F)c(Cc4nc5ccc(C(=O)O)cc5n4C[C@@H]4CCO4)c(C#N)c3)c2O1 (stereo partly shown) [Example 18]"
cat = "rule met"

[[record]]
compound = "COCCn1c(Cc2ccc(-c3cccc4c3OC(c3ccc(C#N)cc3)O4)cc2F)nc2ccc(C(=O)O)cc21 (stereo not shown) [Example 6]"
cat = "rule not met"

[[record]]
compound = "COCCn1c(Cc2c(F)cc(-c3cccc4c3OC3(c5ccc(Cl)cc5)CCC(=O)N43)cc2F)nc2ccc(C(=O)O)cc21 (stereo not shown) [Example 17]"
cat = "rule not met"

[[record]]
compound = "CC1(c2ccc(Cl)cn2)Oc2cccc(-c3cnc(Cc4nc5ccc(C(=O)O)cc5n4C[C@@H]4CCO4)c(F)c3)c2O1 (stereo partly shown) [Example 14]"
cat = "rule not met"

[[record]]
compound = "CCC1(c2ccc(Cl)cc2F)Oc2cccc(-c3cc(F)c(Cc4nc5ccc(C(=O)O)cc5n4CCOC)c(F)c3)c2O1 (stereo not shown) [Example 53]"
cat = "rule not met"

[[record]]
compound = "CC1(c2ccc(Cl)cn2)Oc2cccc(-c3cc(F)c(Cc4nc5ccc(C(=O)O)cc5n4C[C@@H]4CCO4)c(F)c3)c2O1 (single isomer, unassigned) [Example 49]"
cat = "rule met"

[[record]]
compound = "COCCn1c(Cc2c(F)cc(-c3cccc4c3OC(C)(c3ccc(Cl)cc3F)O4)cc2F)nc2ccc(C(=O)NS(=O)(=O)C3CC3)cc21 (racemic) [Example 3]"
cat = "rule not met"

[[record]]
compound = "COCCn1c(Cc2csc(-c3cccc4c3OC(C)(c3ccc(Cl)cc3F)O4)c2)nc2ccc(C(=O)O)cc21 (stereo not shown) [Example 61]"
cat = "rule not met"

[[record]]
compound = "CC1(c2ccc(Cl)cn2)Oc2cccc(-c3ccn(Cc4nc5ccc(C(=O)O)cc5n4C[C@@H]4CCO4)c(=O)c3)c2O1 (stereo partly shown) [Example 26]"
cat = "rule not met"

[[record]]
compound = "COCCn1c(Cc2ccc(-c3cccc4c3OC(c3ccc(C#N)cc3F)O4)cc2F)nc2ccc(C(=O)O)cc21 (single isomer, unassigned) [Example 33]"
cat = "rule not met"


Kindly consider the entry below.
Query :: Would you say CC1(c2ccc(Cl)cc2F)Oc2cccc(-c3cc(F)c(Cc4nc5ccc(C(=O)O)cc5n4C[C@@H]4CCO4)cc3F)c2O1 (stereo partly shown) [Example 28] shows pEC50 at minimum 9?
Result :: rule met
